Source: patent US20220306695A1

- tgt: Human C3 (human, UniProt P01024 23-1663)
- Sequence (P01024 23-1663 limits assumed): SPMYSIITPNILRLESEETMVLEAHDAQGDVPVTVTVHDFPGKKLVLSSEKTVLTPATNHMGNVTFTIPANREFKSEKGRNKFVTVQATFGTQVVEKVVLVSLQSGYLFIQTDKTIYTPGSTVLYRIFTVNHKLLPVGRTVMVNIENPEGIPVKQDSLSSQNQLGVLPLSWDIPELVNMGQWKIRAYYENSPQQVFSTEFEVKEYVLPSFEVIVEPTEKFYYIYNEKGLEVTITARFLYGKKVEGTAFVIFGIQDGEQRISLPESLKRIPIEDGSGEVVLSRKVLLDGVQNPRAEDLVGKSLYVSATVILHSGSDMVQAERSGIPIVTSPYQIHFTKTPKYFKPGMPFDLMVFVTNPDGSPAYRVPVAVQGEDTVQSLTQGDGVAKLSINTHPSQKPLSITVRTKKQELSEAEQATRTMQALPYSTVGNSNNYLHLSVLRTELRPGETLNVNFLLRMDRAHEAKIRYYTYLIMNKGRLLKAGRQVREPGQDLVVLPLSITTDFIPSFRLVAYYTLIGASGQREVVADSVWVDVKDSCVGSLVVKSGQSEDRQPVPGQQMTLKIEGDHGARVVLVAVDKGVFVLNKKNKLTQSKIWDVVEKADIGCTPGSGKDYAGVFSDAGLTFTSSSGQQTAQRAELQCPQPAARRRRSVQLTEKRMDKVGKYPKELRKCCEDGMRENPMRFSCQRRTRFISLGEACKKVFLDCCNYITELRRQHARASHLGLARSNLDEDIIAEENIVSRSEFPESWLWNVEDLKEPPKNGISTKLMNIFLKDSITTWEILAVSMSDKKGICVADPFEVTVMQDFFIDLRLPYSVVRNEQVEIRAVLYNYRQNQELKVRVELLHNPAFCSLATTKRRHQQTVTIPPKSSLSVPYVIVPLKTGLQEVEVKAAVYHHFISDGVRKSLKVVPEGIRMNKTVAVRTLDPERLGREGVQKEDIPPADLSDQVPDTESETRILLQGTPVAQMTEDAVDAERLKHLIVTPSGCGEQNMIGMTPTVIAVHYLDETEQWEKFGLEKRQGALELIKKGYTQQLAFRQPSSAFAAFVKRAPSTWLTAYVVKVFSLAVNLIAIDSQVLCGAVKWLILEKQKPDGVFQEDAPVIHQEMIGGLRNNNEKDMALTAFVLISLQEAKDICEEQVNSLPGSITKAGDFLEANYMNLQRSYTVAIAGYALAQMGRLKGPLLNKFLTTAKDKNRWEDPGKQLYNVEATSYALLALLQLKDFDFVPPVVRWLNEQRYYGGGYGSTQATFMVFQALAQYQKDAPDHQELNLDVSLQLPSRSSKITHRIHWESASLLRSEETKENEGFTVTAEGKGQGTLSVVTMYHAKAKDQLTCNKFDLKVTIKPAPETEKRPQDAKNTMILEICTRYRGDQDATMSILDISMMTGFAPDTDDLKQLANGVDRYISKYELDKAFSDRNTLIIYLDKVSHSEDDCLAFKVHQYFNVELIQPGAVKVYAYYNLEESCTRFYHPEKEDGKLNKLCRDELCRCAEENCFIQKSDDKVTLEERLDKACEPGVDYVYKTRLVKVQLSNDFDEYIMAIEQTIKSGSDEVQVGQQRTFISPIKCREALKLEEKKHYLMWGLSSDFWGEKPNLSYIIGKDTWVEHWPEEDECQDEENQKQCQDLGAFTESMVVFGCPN
- method-description: cell-based or functional assay
Starred links: 1 amine or outer side, 2 acyl side, 3 side chain; linkers in the order of their positions; H or OH if unused. Positions of bridges follow the written chain, without caps; N, C: chain ends. Non-standard residues stand in square brackets, D forms with d. Groups on a side chain read outwards from the residue. *: point of attachment. Trp(1-Me) = Cn1cc(C[C@H](N)C(=O)O)c2ccccc21; C18 diacid = O=C(O)CCCCCCCCCCCCCCCCC(=O)*; γGlu = O=C(O)[C@H](CCC(=O)[*:2])N[*:1]; hCys = N[C@@H](CCS)C(=O)O; AEEA = NCCOCCOCC(=O)O; Sar = CNCC(=O)O
// IC50[nM], inhibition of hemolysis lookup, one value per entry

binder	IC50[nM], inhibition of hemolysis
Ac-SEYCI[Trp(1-Me)]QDWGEHRC[Sar]EGEK([γGlu-Lys-γGlu-C18 diacid])-NH2 (disulfide 4-14) [Compound 116]	< 500 nM
Ac-SAICIWQDWGEHRC[Sar]E-NH2 (disulfide 4-14; SMILES CC[C@H](C)[C@H](NC(=O)[C@H](C)NC(=O)[C@H](CO)NC(C)=O)C(=O)N[C@H]1CSSC[C@@H](C(=O)N(C)CC(=O)N[C@@H](CCC(=O)O)C(N)=O)NC(=O)[C@H](CCCNC(=N)N)NC(=O)[C@H](Cc2c[nH]cn2)NC(=O)[C@H](CCC(=O)O)NC(=O)CNC(=O)[C@H](Cc2c[nH]c3ccccc23)NC(=O)[C@H](CC(=O)O)NC(=O)[C@H](CCC(N)=O)NC(=O)[C@H](Cc2c[nH]c3ccccc23)NC(=O)[C@H]([C@@H](C)CC)NC1=O) [Compound 41]	< 250 nM
Ac-GSAICIWQDWGEHRC[Sar]E-NH2 (disulfide 5-15; SMILES CC[C@H](C)[C@H](NC(=O)[C@H](C)NC(=O)[C@H](CO)NC(=O)CNC(C)=O)C(=O)N[C@H]1CSSC[C@@H](C(=O)N(C)CC(=O)N[C@@H](CCC(=O)O)C(N)=O)NC(=O)[C@H](CCCNC(=N)N)NC(=O)[C@H](Cc2c[nH]cn2)NC(=O)[C@H](CCC(=O)O)NC(=O)CNC(=O)[C@H](Cc2c[nH]c3ccccc23)NC(=O)[C@H](CC(=O)O)NC(=O)[C@H](CCC(N)=O)NC(=O)[C@H](Cc2c[nH]c3ccccc23)NC(=O)[C@H]([C@@H](C)CC)NC1=O) [Compound 40]	< 250 nM
Ac-SEFCI[Trp(1-Me)]QDWGEHRC[Sar]EGE[AEEA]K([γGlu-Gly-γGlu-C18 diacid])-NH2 (disulfide 4-14) [Compound 138]	< 100 nM
Ac-SEFCI[Trp(1-Me)]QDW[Sar]EHRC[Sar]E-NH2 (disulfide 4-14; SMILES CC[C@H](C)[C@@H]1NC(=O)[C@@H](NC(=O)[C@H](Cc2ccccc2)NC(=O)[C@H](CCC(=O)O)NC(=O)[C@H](CO)NC(C)=O)CSSC[C@@H](C(=O)N(C)CC(=O)N[C@@H](CCC(=O)O)C(N)=O)NC(=O)[C@H](CCCNC(=N)N)NC(=O)[C@H](Cc2c[nH]cn2)NC(=O)[C@H](CCC(=O)O)NC(=O)CN(C)C(=O)[C@H](Cc2c[nH]c3ccccc23)NC(=O)[C@H](CC(=O)O)NC(=O)[C@H](CCC(N)=O)NC(=O)[C@H](Cc2cn(C)c3ccccc23)NC1=O) [Compound 79]	< 100 nM
Ac-SEFAI[Trp(1-Me)]QDWGEHR[hCys]TEGE[AEEA]ESK([γGlu-C18 diacid])-OH (thioether 4-14) [Compound 163]	< 100 nM
Ac-SAYCI[Trp(1-Me)]QDWGEHRC[Sar]EK([γGlu-Gly-Lys-γGlu-C18 diacid])-NH2 (disulfide 4-14) [Compound 105]	< 100 nM
